pIC50: −log10 of the molar value.
Reported pIC50 values, UniProtKB P07308.
readout-label: pIC50

Examples with their reported pIC50 follow.
OCc1cnn(-c2ccc(N3CCC(c4noc5ccc(F)cc45)CC3)nn2)c1
7.02
Cc1cn(-c2ccc(N3CCC(N4CCc5ccccc54)CC3)nn2)cn1
7.12

[A] OCc1ccc(-c2ccc(N3CCC(N4CCc5ccc(F)cc54)CC3)nn2)cc1
[B] Cn1cc(-c2ccc(N3CCC(n4ncc5c(F)cccc54)CC3)nn2)cn1
[C] Cc1cc(-c2ccc(N3CCC(c4noc5ccc(F)cc45)CC3)nn2)ccn1
Data request: I would appreciate it if you could sort these 3 molecules by pIC50, starting from the smallest number. Ranked list of labels, please, in the requested order.
Data returned: C, B, A
(C: 6.77, B: 7.17, A: 7.66)

---

# study-system: UniProtKB P07308
# protocol-details: SCD1 enzymatic assay in rat liver microsomes (RLM)
# Type: biochemical
# test-settings: 1 μM test compound, rat liver microsomes; read-out: % Inh.@ 1 μM
readout-label: inhibition at 1 µM (%)

[A] OCCc1cnn(-c2ccc(N3CCC(c4noc5ccc(F)cc45)CC3)nn2)c1 [compound 98]
[B] Cn1cc(-c2ccc(N3CCC(N4CCc5c(F)cccc54)CC3)nn2)cn1 [Compound #66]
Data request: Looking at A and B , which one comes out lower in inhibition at 1 µM terms? Output the label that corresponds to your choice.
Data returned: B

---

# study-system: SCD1 (Rattus norvegicus (Rat))
# protocol-details: SCD1 enzymatic assay in rat liver microsomes (RLM)
# Type: biochemical
# test-settings: 1 μM test compound, rat liver microsomes
readout-label: % Inh.@ 1 μM (%)

Cc1ccc(-c2ccc(N3CCC(c4noc5ccc(F)cc45)CC3)nn2)cn1
94
Cc1cn(-c2ccc(N3CCC(N4CCc5ccc(F)cc54)CC3)nn2)cn1
93
OCCn1cc(-c2ccc(N3CCC(N4CCc5ccc(F)cc54)CC3)nn2)cn1
91
CN(C)c1ccc(-c2ccc(N3CCC(N4CCc5ccc(F)cc54)CC3)nn2)cn1
97
Cc1ccc(-c2ccc(N3CCC(N4CCc5ccc(F)cc54)CC3)nn2)cn1
99

[I] Cc1nsc(-c2ccc(N3CCC(N4CCc5ccc(F)cc54)CC3)nn2)n1
[II] Cc1csc(-c2ccc(N3CCC(c4noc5ccc(F)cc45)CC3)nn2)c1
Data request: Please tell me which of the two, I or II , has the higher reported % Inh.@ 1 μM value. // return label of chosen record
Data returned: I

---

# study-system: SCD1 (Rattus norvegicus (Rat), UniProt P07308)
# Sequence (P07308 whole entry): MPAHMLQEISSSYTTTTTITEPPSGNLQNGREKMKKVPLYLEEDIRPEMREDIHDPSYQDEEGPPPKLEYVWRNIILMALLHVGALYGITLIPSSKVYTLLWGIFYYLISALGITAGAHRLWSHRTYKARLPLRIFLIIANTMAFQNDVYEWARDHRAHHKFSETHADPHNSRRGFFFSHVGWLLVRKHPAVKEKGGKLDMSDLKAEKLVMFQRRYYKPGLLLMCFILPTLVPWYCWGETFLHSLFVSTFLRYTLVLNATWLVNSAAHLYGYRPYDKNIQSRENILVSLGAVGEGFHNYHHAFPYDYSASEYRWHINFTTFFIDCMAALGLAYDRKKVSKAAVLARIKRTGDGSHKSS
# protocol-details: SCD1 enzymatic assay in rat liver microsomes (RLM)
# Format: biochemical
# test-settings: 1 μM test compound, rat liver microsomes; read-out: % Inh.@ 1 μM
readout-label: inhibition at 1 µM (%)

[a] Cc1ccc(-c2ccc(N3CCC(N4CCc5ccc(F)cc54)CC3)nn2)s1
[b] Cn1cc(-c2ccc(N3CCC(n4nnc5ccccc54)CC3)nn2)cn1
[c] CC(C)(C)OC(=O)c1ccc(-c2ccc(N3CCC(N4CCc5ccc(F)cc54)CC3)nn2)cc1
Data request: Order the items by recorded inhibition at 1 µM; the first position goes to the largest value. Return the labels ranked in the requested order, please.
Data returned: a, b, c

---

# study-system: SCD1 (Homo sapiens (Human), UniProt O00767)
# Sequence (O00767 whole entry): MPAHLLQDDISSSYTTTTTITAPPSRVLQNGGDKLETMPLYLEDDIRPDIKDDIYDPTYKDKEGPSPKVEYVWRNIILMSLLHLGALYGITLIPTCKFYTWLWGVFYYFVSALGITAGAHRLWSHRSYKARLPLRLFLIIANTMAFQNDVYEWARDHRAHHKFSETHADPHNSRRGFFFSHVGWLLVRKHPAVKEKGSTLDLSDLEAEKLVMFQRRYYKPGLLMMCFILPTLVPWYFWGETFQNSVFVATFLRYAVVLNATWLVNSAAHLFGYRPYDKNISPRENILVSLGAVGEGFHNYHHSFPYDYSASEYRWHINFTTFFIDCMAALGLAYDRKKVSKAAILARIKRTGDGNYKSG
# protocol-details: SCD1 13C-palmitic acid assay in A431 cells
# Assay type: cell-based
# test-settings: read-out: A431 cells 13C-PA IC50
readout-label: IC50 (nM)

// known answers, use as guide
COc1ncc(-c2ccc(N3CCC(c4noc5ccc(F)cc45)CC3)nn2)cn1
17
Fc1ccc2c(c1)N(C1CCN(c3ccc(-c4ccc(C(F)(F)F)nc4)nn3)CC1)CC2
14

[P] Cc1nnc(-c2ccc(N3CCC(c4noc5ccc(F)cc45)CC3)nn2)o1
[Q] Fc1ccc2c(c1)N(C1CCN(c3ccc(-c4cn[nH]c4)nn3)CC1)CC2
Data request: Short answer wanted: higher IC50, P or Q ? Output the label that corresponds to your choice.
Data returned: P
(P: 248 nM, Q: 20 nM)

[I] O=C(O)c1ccc(-c2ccc(N3CCC(N4CCc5ccc(F)cc54)CC3)nn2)cc1
[II] Cn1cc(-c2ccc(N3CCC(n4ncc5ccc(Cl)cc54)CC3)nn2)cn1
Data request: Which entry has a larger number for IC50, I or II ? Selection: enter the item's label.
Data returned: I

---

# study-system: SCD1 (Rattus norvegicus (Rat), UniProt P07308)
# protocol-details: SCD1 enzymatic assay in rat liver microsomes (RLM)
# Type: biochemical
# test-settings: 1 μM test compound, rat liver microsomes; read-out: % Inh.@ 1 μM
readout-label: inhibition at 1 µM (%)

Cn1cc(-c2ccc(N3CCC(n4ncc5ccc(C(F)(F)F)cc54)CC3)nn2)cn1
96
Cc1cnn(-c2ccc(N3CCC(N4CCc5ccc(F)cc54)CC3)nn2)c1
100
Cc1ccc2c(c1)N(C1CCN(c3ccc(-c4cnn(C)c4)nn3)CC1)CC2
72
Fc1ccc2c(c1)N(C1CCN(c3ccc(-c4cnn(CCN5CCOCC5)c4)nn3)CC1)CC2
71

[I] Cc1cn(-c2ccc(N3CCC(n4ccc5ccccc54)CC3)nn2)cn1
[II] Cn1cc(-c2ccc(N3CCC(N4CCc5c(Cl)cccc54)CC3)nn2)cn1
Data request: Given the listed records, identify the one among I and II with higher inhibition at 1 µM. Give the label under which the chosen entry appears.
Data returned: I
(I: 84%, II: 32%)

[I] COc1ncc(-c2ccc(N3CCC(c4noc5ccc(F)cc45)CC3)nn2)cn1
[II] Cc1ccc(-c2ccc(N3CCC(c4noc5ccc(F)cc45)CC3)nn2)cc1
Data request: Select the item whose inhibition at 1 µM value is smaller, choosing between I and II . Respond using the label that marks the chosen record.
Data returned: II
(II: 45%, I: 75%)

---

# study-system: SCD1 (Homo sapiens (Human))
# protocol-details: SCD1 13C-palmitic acid assay in A431 cells
# Assay type: cell-based
# test-settings: read-out: A431 cells 13C-PA IC50
readout-label: IC50 (nM)

Some solved entries appear below for comparison.
Cn1cc(-c2ccc(N3CCC(n4ncc5ccc(C(F)(F)F)cc54)CC3)nn2)cn1 [compound 81]
15
OCc1cnn(-c2ccc(N3CCC(c4noc5ccc(F)cc45)CC3)nn2)c1 [compound 95]
62
Cc1cn(-c2ccc(N3CCC(N4CCc5ccc(F)cc54)CC3)nn2)cn1 [Compound #4]
9

[P] CCOCc1cnn(-c2ccc(N3CCC(N4CCc5ccc(F)cc54)CC3)nn2)c1 [Compound #72]
[Q] Cn1cc(-c2ccc(N3CCC(n4ncc5c(Cl)cccc54)CC3)nn2)cn1 [compound 61]
[R] Cn1cc(-c2ccc(N3CCC(n4ncc5c(C(F)(F)F)cccc54)CC3)nn2)cn1 [compound 80]
[S] Cn1cc(-c2ccc(N3CCC(n4ncc5cc(F)ccc54)CC3)nn2)cn1 [compound 73]
Data request: Could you please sort these 4 entries by IC50 from high to low? Arrange the labels as the request states and list them.
Data returned: R, S, Q, P

---

Reported IC50 for target or system SCD1 (Rattus norvegicus (Rat), UniProt P07308), by entry.
readout-label: IC50 (nM)

Cn1cc(-c2ccc(N3CCC(n4ncc5ccccc54)CC3)nn2)cn1
92

[a] Cn1cc(-c2ccc(N3CCC(n4ncc5c(Cl)cccc54)CC3)nn2)cn1
[b] NNC(=O)c1ccc(N2CCC(c3noc4ccc(F)cc34)CC2)nn1
Data request: In the pair a and b , the larger recorded IC50 belongs to which? Output the label that corresponds to your choice.
Data returned: b

---

# study-system: SCD1 (Rattus norvegicus (Rat))
# protocol-details: SCD1 enzymatic assay in rat liver microsomes (RLM)
# Format: biochemical
# test-settings: 1 μM test compound, rat liver microsomes; read-out: % Inh.@ 1 μM
readout-label: inhibition at 1 µM (%)

CNC(=O)Cn1cc(-c2ccc(N3CCC(N4CCc5ccc(F)cc54)CC3)nn2)cn1
102
Cc1cn(-c2ccc(N3CCC(c4noc5ccc(F)cc45)CC3)nn2)cn1
97
CNC(=O)c1ccc(-c2ccc(N3CCC(N4CCc5ccc(F)cc54)CC3)nn2)cn1
71
NNC(=O)c1ccc(N2CCC(c3noc4ccc(F)cc34)CC2)nn1
100
Cc1csc(-c2ccc(N3CCC(c4noc5ccc(F)cc45)CC3)nn2)c1
75
OCc1ccc(-c2ccc(N3CCC(N4CCc5ccc(F)cc54)CC3)nn2)cn1
99

---

# study-system: SCD1 (Rattus norvegicus (Rat), UniProt P07308)
# protocol-details: SCD1 enzymatic assay in rat liver microsomes (RLM)
# Type: biochemical
# test-settings: 1 μM test compound, rat liver microsomes; read-out: % Inh.@ 1 μM
readout-label: inhibition at 1 µM (%)

Cc1cn(-c2ccc(N3CCC(c4noc5cc(F)ccc45)CC3)nn2)cn1
88
COc1ccc2c(c1)N(C1CCN(c3ccc(-c4cnn(C)c4)nn3)CC1)CC2
79
Cn1cc(-c2ccc(N3CCC(n4ncc5c(F)cccc54)CC3)nn2)cn1
94
OCCc1cnn(-c2ccc(N3CCC(N4CCc5ccc(F)cc54)CC3)nn2)c1
90
Cc1cn(-c2ccc(N3CCC(N4CCc5ccccc54)CC3)nn2)cn1
86

FYI, the data here is from patent US9102669B2.
